Assay: RU-486 and emetine composition pharmacokinetics study (RU-486 blood concentrations by HPLC)
Type: in vivo
Settings: human, plasma, po; one tablet (10 mg RU-486) orally, eight subjects per group; read-out: T1/2 of RU-486 (converted)
assayMetric: half-life (h)
State just the number; it will be interpreted in h.

Query: Requested field: half-life. Item: CC#C[C@]1(O)CC[C@H]2[C@@H]3CCC4=CC(=O)CCC4=C3[C@@H](c3ccc(N(C)C)cc3)C[C@@]21C
Reply: 35.2

---

Test: RU-486 and emetine composition pharmacokinetics study (RU-486 blood concentrations by HPLC)
Assay type: in vivo
Settings: human, plasma, po; one tablet (10 mg RU-486) orally, eight subjects per group; read-out: AUC0-120 of RU-486
assayMetric: AUC(0-t)

Query: Requested field: AUC(0-t). Item: CC#C[C@]1(O)CC[C@H]2[C@@H]3CCC4=CC(=O)CCC4=C3[C@@H](c3ccc(N(C)C)cc3)C[C@@]21C
Reply: 8.72 µg·h/mL

meta.source: patent US20050220715A1
